Test system: MS2 coat protein
Experiment: apparent KD of MS2 coat protein; designed switch direction (-1 OFF switch, 1 ON switch): -1; higher = weaker reporter binding
Conditions: Eterna round: R95; input ligand: FMN 200 uM
readout.type: apparent KD of MS2 coat protein (nM)
Please reply with the bare figure in nM and do not write the unit itself.

# example entries with known answers
| ordered.residues | subject.of.test | apparent KD of MS2 coat protein [nM] |
| --- | --- | --- |
| CCGGAAAGGGAGGAUAUAGGAGUCGAUAGACACCUAGAAGGUCUGACAUGAGGAUCACCCAUGUGUCCUACCGG [Fiskers Ex 6 - 90] (puzzle: Exclusion 6) | MS2 coat protein | 20.3 |
| GUGUAACUACACGGGCUCAACAUGAGGAUCACCCAUGUCAUACACGCAAGCUUUUUGCUUGUCUUAUCUGUCCGUGA [Raenzama] (puzzle: Sensor v3, turn-off variant 1) | MS2 coat protein | 12.1 |

Could you now look at the following sequence, please?
Item: AUAGAGUCAGGAUAUACAGGUGGAGGAGAGCAGCGUAAGGAGUAGAAGGGACAUGAGGAUCACCCAUGUAAGUG [JR_Exclu4_Sub060] (puzzle: Exclusion 4) Test system: MS2 coat protein Read-out: apparent KD of MS2 coat protein Value: ?
52.5
